# System Name: Tyrosyl-tRNA synthetase, putative (Trypanosoma cruzi (strain CL Brener))
# Sequence (whole entry): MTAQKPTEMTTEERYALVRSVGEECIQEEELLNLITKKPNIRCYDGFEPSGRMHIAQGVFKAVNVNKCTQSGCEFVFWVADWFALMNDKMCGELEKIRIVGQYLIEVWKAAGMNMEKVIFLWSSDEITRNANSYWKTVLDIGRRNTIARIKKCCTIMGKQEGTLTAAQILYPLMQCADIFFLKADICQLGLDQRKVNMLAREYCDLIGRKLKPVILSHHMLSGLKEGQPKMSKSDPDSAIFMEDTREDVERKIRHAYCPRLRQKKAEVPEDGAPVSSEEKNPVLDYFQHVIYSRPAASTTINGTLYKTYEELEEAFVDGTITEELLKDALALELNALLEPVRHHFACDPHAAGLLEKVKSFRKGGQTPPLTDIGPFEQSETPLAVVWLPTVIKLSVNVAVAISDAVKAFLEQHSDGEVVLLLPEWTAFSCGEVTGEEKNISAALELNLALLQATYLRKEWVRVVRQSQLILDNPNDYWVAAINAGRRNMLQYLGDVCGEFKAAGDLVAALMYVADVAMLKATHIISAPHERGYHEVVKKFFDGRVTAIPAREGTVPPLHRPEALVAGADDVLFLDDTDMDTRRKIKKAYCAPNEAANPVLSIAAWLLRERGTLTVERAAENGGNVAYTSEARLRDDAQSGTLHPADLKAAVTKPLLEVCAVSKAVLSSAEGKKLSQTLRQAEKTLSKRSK
# Protocol Text: Trypanosoma cruzi tyrosyl tRNA synthetase (TcYRS) _High Tyrosine SOP
# Format: functional
# Parameters: scale not given: in the data most compounds retested in dose-response had high values
# Assay Conditions: 30 µM
Measured Endpoint: Percent Effect (%)

                                    compound  unit_descriptor  recorded_number
 0  CC(C)N1CCCC(CCCc2ccccn2)(C(=O)O)C1 (stereo unspecified)                %             10.8
 1      Cc1cnn(CCC(=O)N2CCCN(c3cccnn3)CC2)c1                %             2.08
 2  CC(Cc1ccco1)NC(=O)Nc1cnn(CC(N)=O)c1 (stereo unspecified)                %             4.17
 3       Cc1nnc2n1CCN(Cc1csc(Cc3ccccc3)n1)C2                %             8.91
 4  CCC(CC)C(CNC(=O)Nc1ccc(C)cc1)N1CCOCC1 (stereo unspecified)                %            -25.1
 5   COC(=O)c1cccc(OCCn2nc(-c3cccs3)oc2=O)c1                %            -16.8
 6  COc1cc(C)nc(N2CCN(C(=O)c3ccc[nH]3)CC2)n1                %             1.48
 7  O=C(O)c1ccn(-c2ccccc2NS(=O)(=O)c2ccccc2)n1                %             3.83
 8  Cc1ccsc1[C@@H]1CCN(C(=O)c2cc3ccccc3[nH]2)C[C@H]1O                %            -3.16
 9  CC(C)CC(=O)N1CCN(C(=O)N(C)C)CC2(CC(=O)N(C)C2)C1 (stereo unspecified)                %             2.97
10          CC(=O)Nc1nc(C2CCN(C(C)=O)CC2)cs1                %             6.38
